Measured TbrCatL Inhibition 0’ by item
biological target: TbrCatL (Trypanosoma brucei rhodesiense, UniProt Q95PM0); construct: Conor Caffrey (University of California San Diego); assay: TbrCatL enzymatic inhibition assay (cleavage of fluorogenic substrate Z-FR-AMC); assay type: biochemical; settings: 0’ (no pre-incubation); sheet Screening results;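 further: at 5 µM compound concentration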
Sequence (Q95PM0 entry or part of it): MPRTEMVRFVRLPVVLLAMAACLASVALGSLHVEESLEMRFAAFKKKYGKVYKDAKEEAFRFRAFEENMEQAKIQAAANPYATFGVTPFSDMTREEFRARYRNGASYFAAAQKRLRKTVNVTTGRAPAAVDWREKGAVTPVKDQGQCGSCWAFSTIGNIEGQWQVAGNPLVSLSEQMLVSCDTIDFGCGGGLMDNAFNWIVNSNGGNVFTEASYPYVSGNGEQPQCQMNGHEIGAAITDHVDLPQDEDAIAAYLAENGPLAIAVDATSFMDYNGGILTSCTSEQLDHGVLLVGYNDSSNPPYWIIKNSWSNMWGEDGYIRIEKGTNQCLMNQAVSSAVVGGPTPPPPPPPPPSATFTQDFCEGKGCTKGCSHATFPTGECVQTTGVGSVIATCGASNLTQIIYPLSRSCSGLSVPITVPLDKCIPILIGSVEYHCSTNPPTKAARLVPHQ

molecule	u	TbrCatL Inhibition 0’
O=C(NC1CC1)c1ccc(N2CCC(Cc3ccccc3)CC2)nc1	%	2.6
CC(C)(C(=O)Nc1ccc(F)cc1)n1cc(-c2ccccc2F)cn1	%	1.1
COC(=O)c1ccc(F)cc1NS(=O)(=O)c1cccc(-c2cnn(Cc3ccccc3)c2)c1	%	2
Cc1cc(Nc2ccncc2)n2nc(C)c(-c3ccccc3Cl)c2n1	%	3.2
CC(=O)NC[C@H]1CN(c2ccc(-c3ccc(CNCc4cn[nH]n4)cc3)c(F)c2)C(=O)O1	%	-5.5
CS(=O)(=O)N1CCC(CCn2nc(Cc3cccc4ccccc34)c3c(N)ncnc32)CC1	%	14
CC(C)C(C(=O)Nc1ccc(S(=O)(=O)N(C)C)cc1)c1ccc(Cl)cc1 (stereo not shown)	%	-3.4
O=C(COc1cccc(F)c1)Nc1nc(-c2ccccn2)cs1	%	-77
CS(=O)(=O)c1cccc(-c2cnc3[nH]cc(-c4ccc(CCC(=O)O)cc4)c3c2)c1	%	15
Nc1ncc(-c2ccc(C(F)(F)F)nc2)cc1-c1ccc(C(F)(F)F)nc1	%	6.6
CC[C@@H]([C@H](C)O)n1ncn(-c2ccc(N3CCN(c4ccc(OC[C@@H]5CO[C@@](Cn6cncn6)(c6ccc(F)cc6F)C5)cc4)CC3)cc2)c1=O	%	3.6
Cc1nn(Cc2ccccc2)c(Cl)c1C(=O)NC1CCCCCC1	%	7.6
Cc1ccc(NC(=O)CC2COc3ccccc3O2)cc1Cl (stereo not shown)	%	5
CNC(=O)C1Cc2ccccc2N1C(=O)Cc1ccc(F)cc1 (stereo not shown)	%	14
c1ccc(-c2cc(N3CCCCC3)c3ccccc3n2)nc1	%	4.5
Cc1nnc(NCc2cccc(Cl)c2)c2ccccc12	%	3
O=C(C1CCCCC1)N1CC(=O)N2CCc3ccccc3[C@@H]2C1	%	5
Cc1cccc(Cn2ccc(NC(=O)c3ccc4c(c3)OCO4)n2)c1	%	2.8
O=C(Nc1nc(-c2ccccn2)cs1)c1cncn1-c1ccccc1	%	-27
CCN(CC)CCCCCCNc1cc(OC)cc2c(C)ccnc12	%	2.7
CC(C)N=c1cc2n(-c3ccc(Cl)cc3)c3ccccc3nc-2cc1Nc1ccc(Cl)cc1	%	1.1
c1ccc(C[C@@H]2CN(c3nccc(Oc4ccc(-n5ccnc5)cc4)n3)CCN2)cc1	%	6.4
CC1CC1C(=O)NC1CCN(CC2(c3ccccc3)CCCCC2)CC1 (stereo not shown)	%	-2.3
Cc1cccc(-c2nc(Nc3ccncn3)c3sccc3n2)n1	%	19
c1coc(CNc2nc(N3CCCCC3)nc3ccccc23)c1	%	6.5
O=C1Nc2ccc(Br)cc2C12NCCc1c2[nH]c2ccccc12 (stereo not shown)	%	2.6
COc1cccc(OCC(=O)c2ccc(Br)cc2)c1	%	9
Cc1noc(C)c1C(=O)N1CCCC(c2[nH]c3c(C)cccc3c2-c2ccncc2)C1 (stereo not shown)	%	-5.6
CNc1snc(C)c1C(=O)NCCOc1ccc(OC)cc1	%	-7
CCc1nc2ccccc2n1CC(O)COc1cc(C)ccc1Cl (stereo not shown)	%	1.5
N=C(N)c1ccc(-c2cc(-c3ccccc3)on2)cc1	%	20
Cc1nnc(NC(=O)c2cn(-c3ccccc3)nc2-c2ccccc2C)o1	%	-0.2
Cc1ccc(NC(=O)c2nc[nH]c2C(=O)Nc2nc3ccccc3[nH]2)c(C)c1	%	-18
CN1CCN(S(=O)(=O)c2ccc(-c3ccc4c(Nc5ncc(Cl)cn5)ccnc4c3)cc2)CC1	%	24
NCCC[C@@](N)(C(=O)O)C(F)F	%	2
COc1ccccc1C(C)NCC(=O)Nc1cc(C(F)(F)F)ccc1Cl (stereo not shown)	%	-9
CCOc1ccc(-c2nc(NC(=O)CS(=O)(=O)c3ccccc3)sc2C)cc1	%	0.6
